System: NF-kB reporter in Jurkat cells
Assay protocol: NF-kB reporter assay in Jurkat cells stimulated with aCD3/aCD28/PMA
Type: cell-based
Details: Homo sapiens; Jurkat cells, 1 hr compound pre-incubation, aCD3/aCD28/PMA stimulation 4 hr, One-Glo readout; read-out: NF-kB Reporter Assay IC50
Protocol: Jurkat cells were maintained in complete RPMI 1640 media supplemented with 10% FBS. Prior to the assay, 120 nL of the serial diluted compound was added in each well of 384-well flat bottom white plate (Corning #3570) by using liquid handler Echo550. […] The plate was left at room temperature for 5 min and the signal was measured on EnVision (PerkinElmer). Compounds in which an IC50 was not measured are designated as “N/A”.
pIC50: −log10 of the molar value.
Outcome measure: pIC50

Below, 3 compounds whose answers are already recorded.
{"Smiles notation": "COc1ccc2cnn(C)c2c1NS(=O)(=O)c1cnn(-c2cc(N3CCC(C)(C)C3)ccn2)c1", "System name": "NF-kB reporter in Jurkat cells", "Result": "> 6.40"}
{"Smiles notation": "Cc1ccc2cnn(C)c2c1NS(=O)(=O)c1cnn(-c2ccnc(C(F)(F)F)c2)c1", "System name": "NF-kB reporter in Jurkat cells", "Result": "6.00 to 6.40"}
{"Smiles notation": "COc1ncc2cnn(C)c2c1NS(=O)(=O)c1cnn(-c2ccnc(C(F)(F)F)c2)c1", "System name": "NF-kB reporter in Jurkat cells", "Result": "> 6.40"}

Proceeding to the next compound to report its pIC50.
Exam item: Can you share its pIC50? I mean this compound: "COc1ncc2cnn(C)c2c1NS(=O)(=O)c1cnn(-c2cc(N3CCC(C)CC3)ccn2)c1"
Marked response: > 6.40

====

Test system: NF-kB reporter in Jurkat cells
Assay protocol: NF-kB reporter assay in Jurkat cells stimulated with aCD3/aCD28/PMA
Assay type: cell-based
Details: Homo sapiens; Jurkat cells, 1 hr compound pre-incubation, aCD3/aCD28/PMA stimulation 4 hr, One-Glo readout; read-out: NF-kB Reporter Assay IC50
Recorded IC50 for the following molecules

{"Molecule": "CCc1ccc2cnn(C)c2c1NS(=O)(=O)c1cnn(-c2ccnc(C(F)(F)F)c2)c1 [Compound I-2]", "IC50": "< 400 nM"}

Exam item: What is its IC50 for NF-kB reporter in Jurkat cells? Entry: Cn1nc2c(NS(=O)(=O)c3cnn(-c4cc(C(F)(F)F)ccn4)c3)cccc2c1Cl [Compound I-105]
Marked response: 1000 to 2500 nM

Exam item: What is its IC50 for NF-kB reporter in Jurkat cells? Entry: Cn1ncc2cccc(NS(=O)(=O)c3cnn(-c4cc(C5CCO5)ccn4)c3)c21 (stereo not shown) [Compound I-265]
Marked response: < 400 nM

Exam item: What is its IC50 for NF-kB reporter in Jurkat cells? Entry: Cn1ncc2cccc(NS(=O)(=O)c3cnn(-c4cc(C5CC(O)C5)ccn4)c3)c21 (stereo not shown) [Compound I-374]
Marked response: < 400 nM

Exam item: What is its IC50 for NF-kB reporter in Jurkat cells? Entry: COC[C@](C)(OC)c1ccnc(-n2cc(S(=O)(=O)Nc3cccc4cnn(C)c34)cn2)c1 [Compound I-300]
Marked response: < 400 nM

Exam item: What is its IC50 for NF-kB reporter in Jurkat cells? Entry: Cn1ncc2cccc(NS(=O)(=O)c3cnn(-c4cc(C5(F)CC(F)(F)C5)ccn4)c3)c21 [Compound I-383]
Marked response: < 400 nM

Exam item: What is its IC50 for NF-kB reporter in Jurkat cells? Entry: Cc1n[nH]c2cccc(NS(=O)(=O)c3cnn(-c4cc(C5(F)COC5)ccn4)c3)c12 [Compound I-240]
Marked response: < 400 nM

Exam item: What is its IC50 for NF-kB reporter in Jurkat cells? Entry: COc1ccc2cnn(C)c2c1NS(=O)(=O)c1cnn(-c2cc(C3(F)CC(C)C3)ccn2)c1 (stereo not shown) [Compound I-413]
Marked response: < 400 nM

====

System: NF-kB reporter in Jurkat cells
Assay protocol: NF-kB reporter assay in Jurkat cells stimulated with aCD3/aCD28/PMA
Format: cell-based
Details: Homo sapiens; Jurkat cells, 1 hr compound pre-incubation, aCD3/aCD28/PMA stimulation 4 hr, One-Glo readout; read-out: NF-kB Reporter Assay IC50
pIC50: −log10 of the molar value.
Outcome measure: pIC50

{"Molecule": "Cn1ncc2cccc(NS(=O)(=O)c3cnn(-c4cc(C5(O)CCOC5)ccn4)c3)c21 (stereo in doubt) [Compound I-312]", "pIC50": "> 6.40"}

Proceeding to the next molecule to report its pIC50.
Exam item: What is its pIC50 for NF-kB reporter in Jurkat cells? Entry: COc1ncc2cnn(C)c2c1NS(=O)(=O)c1cnn(-c2cc(C(C)OC)ccn2)c1 (single isomer, unassigned) [Compound I-272]
Marked response: > 6.40

====

Recorded IC50 for the following compounds
System name: Avi-tagged FL MALT-1 (Homo sapiens (Human), UniProt Q9UDY8)
Sequence (Q9UDY8 whole entry): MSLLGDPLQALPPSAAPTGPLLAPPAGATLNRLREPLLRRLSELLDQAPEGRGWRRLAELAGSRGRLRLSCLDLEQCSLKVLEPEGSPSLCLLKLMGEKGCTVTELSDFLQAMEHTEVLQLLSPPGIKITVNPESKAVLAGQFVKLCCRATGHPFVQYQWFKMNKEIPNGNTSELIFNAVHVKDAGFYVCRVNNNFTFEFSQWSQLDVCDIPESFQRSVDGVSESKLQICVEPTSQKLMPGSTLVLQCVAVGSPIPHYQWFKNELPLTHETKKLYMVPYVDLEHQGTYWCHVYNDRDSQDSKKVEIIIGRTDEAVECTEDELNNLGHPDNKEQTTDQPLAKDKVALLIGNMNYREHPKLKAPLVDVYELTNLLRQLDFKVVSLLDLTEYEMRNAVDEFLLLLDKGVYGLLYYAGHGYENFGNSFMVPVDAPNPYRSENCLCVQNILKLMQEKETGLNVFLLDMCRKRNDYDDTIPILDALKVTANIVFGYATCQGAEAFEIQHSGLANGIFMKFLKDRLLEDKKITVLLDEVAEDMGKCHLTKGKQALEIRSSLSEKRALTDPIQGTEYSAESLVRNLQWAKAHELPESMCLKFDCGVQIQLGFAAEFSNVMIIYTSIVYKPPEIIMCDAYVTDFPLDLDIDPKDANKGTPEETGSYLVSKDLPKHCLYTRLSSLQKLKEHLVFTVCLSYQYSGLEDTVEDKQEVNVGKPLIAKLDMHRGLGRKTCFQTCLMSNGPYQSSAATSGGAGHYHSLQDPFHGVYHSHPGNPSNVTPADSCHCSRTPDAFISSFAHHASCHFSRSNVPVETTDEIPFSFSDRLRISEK

Below, 2 compounds whose answers are already recorded.
{"Compound": "COc1ncc2cnn(C)c2c1NS(=O)(=O)c1cnn(-c2cc(C(C)(C)OC)ccn2)c1", "Outcome measure": "IC50", "Result": "≤ 400 nM"}
{"Compound": "COc1ccc2cnn(C)c2c1NS(=O)(=O)c1cnn(-c2cc(C3(F)CC(F)C3)ccn2)c1 (single isomer, unassigned) [Compound I-377]", "Outcome measure": "IC50", "Result": "400 to 1000 nM"}

Proceeding to the next compound to report its IC50.
Exam item: Can you share its IC50? I mean this compound: "Cn1ncc2cccc(NS(=O)(=O)c3cnn(-c4cc(C5(O)CCCC5)ccn4)c3)c21"
Marked response: > 2500 nM

====

Please consider the recorded IC50 for Avi-tagged FL MALT-1 (Homo sapiens (Human)) in what follows.

{"Smiles notation": "Cn1ncc2cccc(NS(=O)(=O)c3cnn(-c4cc(C(C)(C)CO)ccn4)c3)c21", "IC50": "> 2.5 µM"}
{"Smiles notation": "C[C@H]1CN(c2ccnc(-n3cc(S(=O)(=O)Nc4cccc5cnn(C)c45)cn3)c2)C(=O)O1", "IC50": "> 2.5 µM"}
{"Smiles notation": "CCc1ccc2[nH]nc(C)c2c1N(C)S(=O)(=O)c1cnn(-c2cc(C)ccn2)c1", "IC50": "≤ 0.4 µM"}

Proceeding to the next compound to report its IC50.
Exam item: What is its IC50 for Avi-tagged FL MALT-1 (Homo sapiens (Human))? Entry: "COc1ccc2cnn(C)c2c1NS(=O)(=O)c1cnn(-c2ccnc(C3CC3)c2)c1"
Marked response: ≤ 0.4 µM

====

Please consider the recorded IC50 for Avi-tagged FL MALT-1 (Homo sapiens (Human)) in what follows.

{"Compound": "Cn1ncc2cccc(NS(=O)(=O)c3cnn(-c4cc(C5(C#N)COC5)ccn4)c3)c21 [Compound I-483]", "Result": "> 2.5 µM"}
{"Compound": "CC1CC(F)(c2ccnc(-n3cc(S(=O)(=O)Nc4cccc5cnn(C)c45)cn3)c2)C1 (centres unmarked) [Compound I-395]", "Result": "> 2.5 µM"}
{"Compound": "COc1ccc2cnn(C)c2c1NS(=O)(=O)c1cnn(-c2cnn3c2CN(C)CC3)c1 [Compound I-468]", "Result": "> 2.5 µM"}
{"Compound": "O=S(=O)(c1cnn(-c2cc(C(F)(F)F)ccn2)c1)N1CCCc2ccc3cn[nH]c3c21 [Compound I-393]", "Result": "> 2.5 µM"}
{"Compound": "Cn1ncc2cccc(NS(=O)(=O)c3cnn(-c4cc(N5CCCCC5)ccn4)c3)c21 [Compound I-250]", "Result": "> 2.5 µM"}

Exam item: Can you share its IC50? I mean this compound: COc1ncc2cnn(C)c2c1NS(=O)(=O)c1cnn(-c2ccnc(C(F)(F)F)c2)c1 [Compound I-87]
Marked response: ≤ 0.4 µM

Exam item: Can you share its IC50? I mean this compound: COc1ncc2cnn(C)c2c1NS(=O)(=O)c1cnn(-c2cc(N3CCC(C)(C)C3)ccn2)c1 [Compound I-425]
Marked response: > 2.5 µM

Exam item: Can you share its IC50? I mean this compound: Cc1n[nH]c2cccc(N(C)S(=O)(=O)c3cnn(-c4ccnc(C(F)(F)F)c4)c3)c12 [Compound I-64]
Marked response: 1 to 2.5 µM

====

Recorded pIC50 for the following molecules
System: NF-kB reporter in Jurkat cells
Assay protocol: NF-kB reporter assay in Jurkat cells stimulated with aCD3/aCD28/PMA
Assay type: cell-based
Details: Homo sapiens; Jurkat cells, 1 hr compound pre-incubation, aCD3/aCD28/PMA stimulation 4 hr, One-Glo readout; read-out: NF-kB Reporter Assay IC50
pIC50: −log10 of the molar value.

Exam item: Can you share its pIC50? I mean this molecule: COCC(C)(C)c1ccnc(-n2cc(S(=O)(=O)Nc3c(OC)ccc4cnn(C)c34)cn2)c1 [Compound I-482]
Marked response: > 6.40

Exam item: Can you share its pIC50? I mean this molecule: Cn1ncc2ccc(C3CC3)c(NS(=O)(=O)c3cnn(-c4cncc(C(F)(F)F)c4)c3)c21 [Compound I-18]
Marked response: 6.00 to 6.40

Exam item: Can you share its pIC50? I mean this molecule: CC(=O)N1CC(F)(c2ccnc(-n3cc(S(=O)(=O)Nc4cccc5cnn(C)c45)cn3)c2)C1 [Compound I-253]
Marked response: 6.00 to 6.40

Exam item: Can you share its pIC50? I mean this molecule: COC1(c2ccnc(-n3cc(S(=O)(=O)Nc4cccc5cnn(C)c45)cn3)c2)CC2(CC2)C1 [Compound I-484]
Marked response: > 6.40

Exam item: Can you share its pIC50? I mean this molecule: CCC(C)(O)c1ccnc(-n2cc(S(=O)(=O)Nc3c(OC)ccc4cnn(C)c34)cn2)c1 (single isomer, unassigned) [Compound I-315]
Marked response: > 6.40

Exam item: Can you share its pIC50? I mean this molecule: CC1CN(c2ccnc(-n3cc(S(=O)(=O)Nc4cccc5cnn(C)c45)cn3)c2)C1 [Compound I-356]
Marked response: > 6.40

Exam item: Can you share its pIC50? I mean this molecule: COc1ccc2cnn(C)c2c1NS(=O)(=O)c1cnn(-c2ccnc(C3CC3)c2)c1 [Compound I-77]
Marked response: > 6.40

Hey, just so you know, these numbers are from patent US20240150321A1.
